B1: POU domain, class 3, transcription factor 1, residues 247 to 324; numbered along this chain, Q03052 (parent)
chain: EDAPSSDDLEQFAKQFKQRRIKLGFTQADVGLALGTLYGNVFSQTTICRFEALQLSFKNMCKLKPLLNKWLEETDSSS

Variants of: B1
Experiment: abundance fitness (aPCA) (normalised: wild type 0, dead -1); higher = more abundant; growth selection in yeast, the domain comes from the species named
Conditions: Homo sapiens
measured_quantity: abundance fitness
One number for each entry.

For orientation, consider the following solved cases.
mutation_name | abundance fitness
M60K | -0.09
Q44P | 0.132
F50Y | -0.089
F57G | -0.275
R20P | -0.744

Return reported abundance fitness values for all items listed beneath this line.
1. T45Y
2. F57V
3. N40S
4. E51Q
5. S43N
6. L32H

Ans.
1. -0.304
2. -0.144
3. 0.004
4. -0.686
5. 0.045
6. 0.033
